- System: Cryptococcus neoformans
- procedure details: Antifungal activity against Cryptococcus neoformans isolate CN1 measured after 48 hrs by CLSI M27-A3 protocol based method
- Assay type: functional
- condition context: isolate CN1, 48 h
assay readout: MIC (µM)
Give the quantity in µM, number only.

Known MIC results, listed for orientation:
compound | MIC / µM
CCCCCCCCNCC(O)(Cn1cncn1)c1ccc(F)cc1F (stereo not drawn) | 5.3
CCCCCCCCCCCCCCCCNCC(O)(Cn1cncn1)c1ccc(F)cc1F (stereo not drawn) | 1
CCCCCOCCCCCCNCC(O)(Cn1cncn1)c1ccc(F)cc1F (stereo not drawn) | 1.1

Prompt line: Name the recorded MIC for CC[C@H](C)C[C@H](C)CCCCCCCCC(=O)N[C@H]1C[C@@H](O)[C@@H](NCCN)NC(=O)[C@@H]2[C@@H](O)CCN2C(=O)[C@H]([C@H](O)CCN)NC(=O)[C@H]([C@H](O)[C@@H](O)c2ccc(O)cc2)NC(=O)[C@@H]2C[C@@H](O)CN2C(=O)[C@H]([C@@H](C)O)NC1=O [CASPOFUNGIN] .
Response line: 12.9

Prompt line: Reported MIC for CCCCCCNCC(O)(Cn1cncn1)c1ccc(F)cc1F (stereo not drawn) : what is it?
Response line: 23

Prompt line: // query MIC value for entry CCCCCCCCCCCCCCNCC(O)(Cn1cncn1)c1ccc(F)cc1F (stereo not drawn)
Response line: 0.27
